Some compounds, each annotated with its measured Ki.
- experimentalTarget: hCB2 receptor (Homo sapiens (Human), UniProt P34972)
- experimentSummary: hCB2 competition-equilibrium binding with [3H]CP-55,940, membranes of HEK293 cells expressing hCB2
- runParameters: HEK293 cells expressing hCB2, [3H]CP-55,940; read-out: hCB2 Ki
Kindly provide the numeric value in nM only, without the unit symbol.

| chemicalStructure | Ki, nM |
| --- | --- |
| CC1=CC[C@@H]2[C@@H](C1)c1c(O)cc(C3(C(=O)OCCCCC#N)CCC3)cc1OC2(C)C | 1.8 |
| CCOC(=O)C(C)(C)c1cc(O)c2c(c1)OC(C)(C)[C@@H]1CC=C(C)C[C@@H]21 | 1.5 |
| CC1=CC[C@@H]2[C@@H](C1)c1c(O)cc(CC(=O)OCCCCBr)cc1OC2(C)C | 7.1 |
| CC1=CC[C@H]2[C@@H](C1)c1c(O)cc(C(C)(C)C(=O)OCCCCBr)cc1OC2(C)C | 0.8 |
| CCCCOC(=O)C(C)(C)c1cc(O)c2c(c1)OC(C)(C)[C@@H]1CC[C@@H](CO)C[C@H]21 | 6.5 |

Here is the next item to consider.
The value of Ki recorded for COC(=O)C(C)(C)c1cc(O)c2c(c1)OC(C)(C)[C@@H]1CC=C(C)C[C@@H]21 when tested on hCB2 receptor (Homo sapiens (Human), UniProt P34972) reads 36.8

Data credit: patent US10882838B2
